tested on: CD2F1 mice, L1210 leukemia ip, survival T/C; assay: NCI In Vivo Anticancer Drug Screen. Data for tumor model L1210 Leukemia (intraperitoneal) in CD2F1 (CDF1) mice; conditions: endpoint: mean survival time; dose: 100.0 mg/kg/injection; schedule: Q04DX003 (ip); vehicle: saline with Tween-80; higher = longer survival
Toxic doses and inconclusive results are not listed.
MEASURED PARAMETER: T/C

# count of solved cases: 3
| MOLECULE | TARGET UNDER TEST | ASSAY VALUE |
| --- | --- | --- |
| CN(C)N=Nc1ccc(S(=O)(=O)Nc2ncccn2)cc1 | CD2F1 mice, L1210 leukemia ip, survival T/C | 113 % of control |
| O=C1C(c2ccccc2)=C(c2ccccc2)CC1O (centres undefined) | CD2F1 mice, L1210 leukemia ip, survival T/C | 103 % of control |
| COc1cc(/C=N/N2CCCCC2)cc(OC)c1OC | CD2F1 mice, L1210 leukemia ip, survival T/C | 104 % of control |

Prompt: // returns reported T/C for input COC1=CC(=O)C(C2CC(=O)c3c(O)cc(O)cc3O2)=CC1=O (centres undefined)
Response: 100 % of control

---

tested on: CD2F1 mice, L1210 leukemia ip, survival T/C; assay: NCI In Vivo Anticancer Drug Screen. Data for tumor model L1210 Leukemia (intraperitoneal) in CD2F1 (CDF1) mice; details: endpoint: mean survival time; dose: 200.0 mg/kg/injection; schedule: Q01DX009 (ip); vehicle: saline with Tween-80
Toxic doses and inconclusive results are not listed. Rule for the calls: active = survival T/C of 150% or more; inactive = T/C below 125% in these data.
Your answer must be one of the following: active, inactive

For orientation, consider the following solved cases.
| MOLECULE | CLASS ASSIGNMENT |
| --- | --- |
| CCCC(C)(C)c1ccccc1 | inactive |
| CNC(=O)Nc1nccs1 | inactive |
| CC(C)N(CCNc1nc(C(Cl)(Cl)Cl)nc2ccc(Cl)cc12)C(C)C | inactive |
| COc1ccc(C(C#N)Nc2ccccc2)cc1 (stereo not drawn) | inactive |
| CNc1cccnc1/C=N/NC(N)=S | active |

Prompt: Recorded test call requested for O=C(O)/C=C/C(=O)Nc1ccc(Cl)cc1
Response: inactive

Prompt: Recorded test call requested for CCOC(=O)NS(=O)(=O)Nc1ccccc1
Response: inactive

Prompt: Recorded test call requested for Cc1cc2ncn(CC(=O)O)c2cc1C
Response: inactive

---

test system: CD2F1 mice, L1210 leukemia ip, survival T/C; assay: NCI In Vivo Anticancer Drug Screen. Data for tumor model L1210 Leukemia (intraperitoneal) in CD2F1 (CDF1) mice; details: endpoint: mean survival time; dose: 200.0 mg/kg/injection; schedule: Q04DX003 (ip); vehicle: saline with Tween-80; higher = longer survival
Inconclusive results and toxic doses are left out.
Record form. Attribute: T/C. Fill in for each entry.

# count of solved cases: 5
| MOLECULE | T/C |
| --- | --- |
| COC(=O)C1CC2C(CCC3C(C)(C(=O)OC)CCCC23C)C(=O)C1(O)C(C)C (stereo unspecified) | 105 % of control |
| CCCCCCOc1ccc(/C=N\N=C\c2ccc(OCCCCCC)cc2)cc1 | 89 % of control |
| O=C(O)c1ccccc1S(=O)(=O)c1ccccc1 | 88 % of control |
| CCOC(=O)CCC1(CCC(=O)OCC)OCCO1 | 98 % of control |
| c1ccc2c(c1)C1c3ccccc3C2c2ccccc21 | 100 % of control |

// moving on: another record for T/C
Prompt: // returns reported T/C for input CSc1n[nH]c(N=[N+]=[N-])c1C(N)=O
Response: 93 % of control

---

tested on: CD2F1 mice, L1210 leukemia ip, survival T/C; assay: NCI In Vivo Anticancer Drug Screen. Data for tumor model L1210 Leukemia (intraperitoneal) in CD2F1 (CDF1) mice; settings: endpoint: mean survival time; dose: 200.0 mg/kg/injection; schedule: Q01DX009 (ip); vehicle: saline with Tween-80; higher = longer survival
Inconclusive results and toxic doses are left out.
MEASURED PARAMETER: T/C

# count of solved cases: 6
| COMPOUND | T/C |
| --- | --- |
| ICC1COC(CI)CO1 (configuration not stated) | 96 % of control |
| CCN(CC)C(=O)CS(=O)(=O)c1ccc(C)cc1 | 100 % of control |
| CSc1ccc(OC(=O)Nc2ccc(C)cc2C)cc1C | 93 % of control |
| CC(=O)OC(OC(C)=O)c1ccc([N+](=O)[O-])cc1 | 97 % of control |
| Nc1ccc2c(Cl)cc(Cl)cc2c1 | 96 % of control |
| CCCn1c(O)c(C=N)c(=O)[nH]c1=O | 111 % of control |

// moving on: another record for T/C
Prompt: // returns reported T/C for input C=C1C(=O)O[C@@H]2C[C@@]3(C)CC(=O)C=C(C)[C@@H]3C[C@H]12
Response: 98 % of control
